Origin of measurements: patent US20240108738A1

measured.target: T1, recombinant human NKp46-Fc fusion biotinylated via Avi-tag (human, UniProt O76036 22-255, limits assumed, biotin on Avi-tag)
T1 construct: also called biotinylated NKp46
T1 sequence (O76036 22-255 limits assumed): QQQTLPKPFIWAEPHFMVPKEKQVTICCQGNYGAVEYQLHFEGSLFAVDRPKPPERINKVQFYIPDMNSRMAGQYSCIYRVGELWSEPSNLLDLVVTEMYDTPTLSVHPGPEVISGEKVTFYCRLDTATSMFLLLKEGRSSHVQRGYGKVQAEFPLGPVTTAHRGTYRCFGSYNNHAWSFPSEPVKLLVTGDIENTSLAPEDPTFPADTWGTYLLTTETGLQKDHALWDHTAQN
assay.comment: SPR Method 1
Numbered stars: 1 amine (or outer) side, 2 acyl side, 3 side chain; on linkers, the order of the positions; unused ones are H or OH. Bridge positions count the residues as written; N and C are the ends. Ends that are not written are not given here. TATA = O=C(CC[*:1])N1CN(C(=O)CC[*:2])CN(C(=O)CC[*:3])C1; PYA = not defined here
endpoint.label: pKd
Answers are plain numbers, as −log10 of the molar value.

binder: ACDLTTHNCQWGICAK(PYA) (linker 2-9-14 via TATA (inferred); reading uncertain, scaffold TATA) [BCY15686]
pKd: 6.56

binder: ACYLPDYLCGDEYCAK (C-terminal D-Lys(PYA), scaffold TATA) [BCY15452]
pKd: 7.57

Prompt: # input binder: ACNLQAPCMQTGKVCAK (C-terminal Lys(PYA), scaffold TATA) [BCY15687] ; wanted: its pKd
Response: 6.02
